src = ChEMBL document CHEMBL1143321

Reported values: pKi for Histamine H3 receptor (Homo sapiens), one per item.
pKi: −log10 of the molar value.
metric: pKi

Worked cases, pKi given:
chemicalSmiles | pKi
c1cc(Sc2ccc([C@H]3CC[C@H]4CCCCN43)cc2)ccn1 | 7.92
Cn1c(C(=O)c2ccc(Cl)cc2)cnc1SCCCN1CCCCC1 | 8.22
CN(C)CCCSc1ncc(C(=O)c2ccc(Cl)cc2)n1C | 8.30

A. CN(C)CCSc1ncc(Cc2ccc(Cl)cc2)n1C
B. Cn1c(C(=O)c2ccc(Cl)cc2)cnc1CCCCN1CCCCC1
C. CC(C)N1CCC(COc2ncc(C(=O)c3ccccc3)n2C)CC1
INPUT: List the 3 entries from lowest pKi to highest pKi value. In your reply, arrange the labels in the requested order.
OUTPUT: A, B, C
(A: 7.15, B: 7.62, C: 9.00)

* * *

# systemName: Cytochrome P450 1A2 (Homo sapiens, UniProt P05177)
# Sequence (P05177 whole entry): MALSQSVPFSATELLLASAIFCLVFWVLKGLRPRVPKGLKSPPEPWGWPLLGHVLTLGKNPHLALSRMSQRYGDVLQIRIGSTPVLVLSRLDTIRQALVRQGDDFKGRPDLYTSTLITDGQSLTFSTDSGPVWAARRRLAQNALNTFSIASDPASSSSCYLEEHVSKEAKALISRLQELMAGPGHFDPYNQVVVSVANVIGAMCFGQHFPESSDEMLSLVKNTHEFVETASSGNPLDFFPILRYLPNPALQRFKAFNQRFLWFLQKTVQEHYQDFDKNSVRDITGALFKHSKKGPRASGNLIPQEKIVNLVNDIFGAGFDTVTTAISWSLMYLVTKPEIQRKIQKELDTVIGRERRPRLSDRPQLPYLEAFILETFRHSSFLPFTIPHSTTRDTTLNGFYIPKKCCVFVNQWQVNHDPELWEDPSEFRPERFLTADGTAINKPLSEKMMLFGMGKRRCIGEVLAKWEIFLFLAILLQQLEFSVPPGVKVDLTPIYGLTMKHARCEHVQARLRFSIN
pIC50: −log10 of the molar value.
metric: pIC50

The recorded pIC50 with Cytochrome P450 1A2 (Homo sapiens, UniProt P05177) for CC(C)N1CCC(COc2ncc(C(=O)c3ccc(Cl)cc3)n2C)CC1 was < 5.00

* * *

# testProtocol: Volume of distribution in rat at 10 mg/kg, iv
# Assay type: ADME, organism-based
# Parameters: dose 10 mg/kg, route intravenous
# experimentalContext: in vivo
metric: Vd (L/kg)
Quick note: give the figure in L/kg, leave out the unit.

Just so you know, measured Vd for CC(C)N1CCC(COc2ncc(C(=O)c3ccc(Cl)cc3)n2C)CC1 came out at 5.2

* * *

# testProtocol: Drug level in rat at 10 mg/kg, ip after 48 hrs
# Type: ADME, organism-based
# Design: dose 10 mg/kg, route intraperitoneal
# experimentalContext: in vivo, read-out: Drug uptake
metric: concentration at 48 h (µM)
Quick note: give the figure in µM, leave out the unit.

Just so you know, measured concentration at 48 h for CC(C)N1CCC(COc2ncc(C(=O)c3ccc(Cl)cc3)n2C)CC1 came out at 3.8

* * *

# testProtocol: Metabolic stability in rat liver microsomes assessed as half life
# Format: ADME, Microsome
metric: half-life (min)

1. Cn1c(C(=O)c2ccc(Cl)cc2)cnc1SCCCN1CCCCC1
2. Cn1c(C(=O)c2ccc(Cl)cc2)cnc1CCCCN1CCCCC1
3. Cn1c(C(=O)c2ccc(Cl)cc2)cnc1OCCCN1CCCCC1
INPUT: Reorder the records above by half-life so that values decrease. In your reply, arrange the labels in the requested order.
OUTPUT: 3, 1, 2

* * *

# systemName: Histamine H3 receptor (Homo sapiens, UniProt Q9Y5N1)
# Sequence (Q9Y5N1 whole entry): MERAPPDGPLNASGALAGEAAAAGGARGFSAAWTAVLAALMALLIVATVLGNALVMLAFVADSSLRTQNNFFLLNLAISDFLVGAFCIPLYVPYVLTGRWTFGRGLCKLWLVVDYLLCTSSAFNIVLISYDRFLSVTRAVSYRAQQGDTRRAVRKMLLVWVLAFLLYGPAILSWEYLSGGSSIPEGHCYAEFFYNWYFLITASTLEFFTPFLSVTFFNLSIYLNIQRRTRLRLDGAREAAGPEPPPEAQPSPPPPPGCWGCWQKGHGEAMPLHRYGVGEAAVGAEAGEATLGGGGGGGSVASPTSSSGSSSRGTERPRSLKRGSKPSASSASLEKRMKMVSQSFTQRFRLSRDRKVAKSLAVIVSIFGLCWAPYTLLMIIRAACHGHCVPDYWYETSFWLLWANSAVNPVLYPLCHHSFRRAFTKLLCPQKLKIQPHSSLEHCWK
# testProtocol: Antagonist activity at human histamine H3 receptor
# Type: functional
# experimentalContext: read-out: pA2 (converted)
metric: Kb (nM)

I. CN(C)CCCSc1ncc(C(=O)c2ccc(Cl)cc2)n1C
II. CC(C)N1CCC(COc2ncc(C(=O)c3cccc(Cl)c3)n2C)CC1
III. CC(C)N1CCC(COc2ncc(C(=O)c3ccccc3Cl)n2C)CC1
INPUT: Reorder the records above by Kb so that values decrease. In your reply, arrange the labels in the requested order.
OUTPUT: I, II, III

* * *

# testProtocol: Half life in rat at 10 mg/kg, po
# Assay type: ADME, organism-based
# Design: dose 10 mg/kg, route oral
# experimentalContext: in vivo
metric: half-life (h)
Quick note: give the figure in h, leave out the unit.

Just so you know, measured half-life for CC(C)N1CCC(COc2ncc(C(=O)c3ccc(Cl)cc3)n2C)CC1 came out at 9
